target: Mth IMPDH ΔCBS (Mycolicibacterium thermoresistibile, UniProt G7CNL4, R236G); assay: Inhibition constants (Ki) and mode of inhibition against Mth IMPDH ΔCBS with respect to IMP and NAD+; format: biochemical, Mycobacterium thermoresistible; conditions: with respect to IMP; UC = uncompetitive
READOUT: Pattern of inhibition with respect to IMP

>  <COMPOUND SMILES>
Cc1ccc(-c2nc(C(=O)O)cs2)cc1

>  <REPORTED VALUE>
Mixed

$$$$
>  <COMPOUND SMILES>
CC1(C)Cc2cccc(CO)c2O1

>  <REPORTED VALUE>
Mixed

$$$$
>  <COMPOUND SMILES>
O=C(O)c1cc2sccc2s1

>  <REPORTED VALUE>
Mixed

$$$$

----------
molecular target: Mth IMPDH ΔCBS (Mycolicibacterium thermoresistibile, UniProt G7CNL4, R236G); assay: Inhibition constants (Ki) and mode of inhibition against Mth IMPDH ΔCBS with respect to IMP and NAD+; assay type: biochemical, Mycobacterium thermoresistible; settings: with respect to NAD+; constant saturating IMP (1 mM)
READOUT: NAD αKi

>  <COMPOUND>
Brc1ccc(-c2c[nH]cn2)cc1

>  <READOUT>
NAD αKi

>  <REPORTED VALUE>
512 ± 23 µM

$$$$
>  <COMPOUND>
COc1ccc(OC(C)C(=O)Nc2ccc(I)cc2)cc1 (centres unmarked) [Compound 1, reference compound]

>  <READOUT>
NAD αKi

>  <REPORTED VALUE>
0.55 ± 0.02 µM

$$$$
>  <COMPOUND>
O=C(O)c1cc2sccc2s1

>  <READOUT>
NAD αKi

>  <REPORTED VALUE>
262 ± 39 µM

$$$$
>  <COMPOUND>
Oc1ccc2ccc(O)cc2c1

>  <READOUT>
NAD αKi

>  <REPORTED VALUE>
310 ± 30 µM

$$$$
>  <COMPOUND>
CC(=O)Nc1cc(C)ccc1O

>  <READOUT>
NAD αKi

>  <REPORTED VALUE>
452 ± 26 µM

$$$$
